Can you tell me Produced peptide for the items I'm about to list?
test system: peptide-forming enzyme (Mono S fraction enzyme); assay: Enzyme substrate specificity (1)-(10), (13), (14): peptide production; type: biochemical, Empedobacter brevis; conditions: carboxy component 100 mM, amine component 150 mM, 0.1 unit enzyme, 25° C., reaction time 2 hr
Where a SMILES comes first, the peptide text is derived from it. The star is where a group is joined. Boc = CC(C)(C)OC(=O)*; OtBu = CC(C)(C)O*; tBu = CC(C)(C)*
Number only, in mM; omit the unit.

Query: Requested read-out: Produced peptide. Entry: C[C@H](N)C(=O)N[C@@H](CC(=O)OC(C)(C)C)C(=O)O [H-Ala-Asp(OtBu)-OH] (H-Ala-Asp(OtBu)-OH)
Result: 62.6

Query: Suppose we examine the molecule C[C@H](N)C(=O)N[C@@H](CCCCNC(=O)OC(C)(C)C)C(=O)O [H-Ala-Lys(Boc)-OH] (H-Ala-Lys(Boc)-OH) ; what Produced peptide value has been reported?
Result: 51.0

Query: Sample CC(C)(C)OC(=O)C[C@H](N)C(=O)N[C@@H](CCC(N)=O)C(=O)O [H-Asp(OtBu)-Gln-OH] (H-Asp(OtBu)-Gln-OH) — what was its Produced peptide?
Result: 0.9

Query: Given C[C@H](N)C(=O)N[C@@H](COC(C)(C)C)C(=O)O [H-Ala-Ser(tBu)-OH] (H-Ala-Ser(tBu)-OH) , state its recorded Produced peptide.
Result: 48.8
